Assay: qHTS assay to identify small molecule antagonists of the TGF-beta/Smad signaling pathway - cell viability counter screen (AID 1346824); note: nearly all actives have a fitted effect of over 50% in size
Conditions: SBE-bla HEK293T viability, CellTiter-Glo luminescence; series mostly up to 76.8 µM
Text: U.S. Tox21 Program National Center for Advancing Translational Sciences [NCATS] NIH Chemical Genomics Center [NCGC] U.S. Environmental Protection Agency [EPA] National Institutes of Environmental Health Sciences [NIEHS] National Toxicology Program [NTP] U.S. Food and Drug Administration [FDA] […]
Inconclusive results are not listed. Activity calls are given as the source filed them. Calls come from the whole dose curve; as a rule, active = well fitted cell-killing curve with a large enough effect in the repeat runs; inconclusive = weak or mixed curves; inactive = flat fitted curve, though single readings scatter.
The reply should be one of these categories: yes (1) = active, no (0) = inactive

Status in this test for CCCC1O[C@@H]2C[C@H]3[C@@H]4CCC5=CC(=O)C=C[C@]5(C)[C@H]4[C@@H](O)C[C@]3(C)[C@]2(C(=O)CO)O1 (stereo not given in full) ?
no (0)

Status in this test for CCCC(C)c1ccccc1O (stereo not given) ?
no (0)

Status in this test for O=C(c1ccc(O)cc1O)c1ccc(O)cc1O ?
no (0)

Status in this test for O=c1c(-c2ccccc2)c1-c1ccccc1 ?
no (0)

Status in this test for C[C@@H]1C[C@H]2[C@@H]3CCC4=CC(=O)C=C[C@]4(C)[C@@]3(Cl)[C@@H](O)C[C@]2(C)[C@@]1(OC(=O)c1ccco1)C(=O)CCl ?
no (0)

Status in this test for CCN(C(=O)c1cc(C)cc(OC[C@H](C)Nc2ccncc2)c1)C(C)C ?
no (0)

Status in this test for Oc1cccc(-c2c3nc(c(-c4cccc(O)c4)c4ccc([nH]4)c(-c4cccc(O)c4)c4nc(c(-c5cccc(O)c5)c5ccc2[nH]5)CC4)C=C3)c1 ?
no (0)

Status in this test for CCC(CN)=C(c1ccccc1)c1ccccc1 ?
no (0)

Status in this test for C[C@]12CCC(=O)C=C1CC[C@@H]1[C@@H]2[C@@H](O)C[C@@]2(C)[C@H]1CC[C@]2(O)C(=O)COC(=O)CCC(=O)O ?
no (0)

Status in this test for CCCCCCCCn1sc(Cl)c(Cl)c1=O ?
yes (1)

Status in this test for O=C1CCCc2c1cc1ccc3cccc4ccc2c1c34 ?
no (0)

Status in this test for CCCCCCCCCCCCCCCS(=O)(=O)Oc1ccccc1 ?
no (0)

Status in this test for CN(C)[C@@H]1C(=O)C(C(N)=O)=C(O)[C@@]2(O)C(=O)C3=C(O)c4c(O)cccc4C[C@H]3C[C@@H]12 ?
no (0)

Status in this test for O=c1[nH]sc2ccccc12 ?
no (0)

Status in this test for Nc1ccccc1O ?
no (0)

Status in this test for Oc1ccc2c(c1)-c1ccccc1C2 ?
no (0)

Status in this test for C=C(C)C(=O)OCC[N+](C)(C)C ?
no (0)

Status in this test for CC(C)(C)c1ccc(C(=O)O)cc1 ?
no (0)

Status in this test for CCCCCCCCCCCCCCCCCC[N+](C)(C)C ?
yes (1)

Status in this test for C1CCCC1 ?
no (0)
